Target: T1, Desmoglein 2 (DSG2) on cells (human, UniProt Q14126 50-1118)
T1 construct: whole, on cells; also called HeLa cells, which express DSG2; DSG2 on polarized T84 cells
T1 sequence (looked up): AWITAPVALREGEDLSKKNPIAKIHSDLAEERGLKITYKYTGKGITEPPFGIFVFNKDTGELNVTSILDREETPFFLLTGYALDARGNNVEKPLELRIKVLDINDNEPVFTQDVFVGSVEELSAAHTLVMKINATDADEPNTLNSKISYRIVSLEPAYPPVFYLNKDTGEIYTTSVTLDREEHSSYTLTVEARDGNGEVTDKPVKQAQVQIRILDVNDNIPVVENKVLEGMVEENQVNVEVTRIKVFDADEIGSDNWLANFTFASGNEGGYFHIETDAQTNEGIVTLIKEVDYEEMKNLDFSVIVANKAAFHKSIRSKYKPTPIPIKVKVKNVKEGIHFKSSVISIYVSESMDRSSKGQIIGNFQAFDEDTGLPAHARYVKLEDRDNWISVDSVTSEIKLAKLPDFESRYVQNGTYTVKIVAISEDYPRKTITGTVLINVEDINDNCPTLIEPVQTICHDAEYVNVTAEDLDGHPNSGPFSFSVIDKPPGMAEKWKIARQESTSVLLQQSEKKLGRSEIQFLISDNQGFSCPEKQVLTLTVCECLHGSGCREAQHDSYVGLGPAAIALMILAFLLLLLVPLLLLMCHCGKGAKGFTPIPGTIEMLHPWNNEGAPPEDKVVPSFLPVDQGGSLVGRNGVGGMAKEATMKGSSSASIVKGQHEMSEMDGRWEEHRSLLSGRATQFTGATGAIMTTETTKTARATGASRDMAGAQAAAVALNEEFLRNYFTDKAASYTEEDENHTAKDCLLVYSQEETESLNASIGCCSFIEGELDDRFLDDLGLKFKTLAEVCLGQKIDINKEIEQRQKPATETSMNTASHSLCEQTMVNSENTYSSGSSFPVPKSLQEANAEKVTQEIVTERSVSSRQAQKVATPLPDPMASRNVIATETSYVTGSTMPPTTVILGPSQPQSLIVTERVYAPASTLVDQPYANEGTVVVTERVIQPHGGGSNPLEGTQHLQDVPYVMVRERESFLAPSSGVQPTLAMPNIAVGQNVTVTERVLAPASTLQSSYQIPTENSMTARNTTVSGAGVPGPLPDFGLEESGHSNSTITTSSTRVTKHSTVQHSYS
Experiment: competition: attachment of 3H-labelled Ad3 virus (competitor) to HeLa cells after pre-incubation with dimeric knob; scintillation counting
outcome.measure: Inhibition of attachment in the presence of dimeric knob (JO-1 = 100%)

Here are 2 binders together with their reported answers.
dimeric Ad3 fiber knob mutant S190P (ligand, JO-1 format; also called 5190P) MKVSALKEKVSALKEKVSALKEKVSALKEKVSALKEGSGGGSGGGSGGGSNSIALKNNTLWTGPKPEANCIIEYGKQNPDSKLTLILVKNGGIVNGYVTLMGASDYVNTLFKNKNVPINVELYFDATGHILPDSSSLKTDLELKYKQTADFSARGFMPSTTAYPFVLPNAGTHNENYIFGQCYYKASDGALFPLEVTVMLNKRLPDSRTSYVMTFLWSLNAGLAPETTQATLITSPFTFSYIREDD :: 73.4 % (JO-1 = 100%)
dimeric Ad3 fiber knob mutant D261N, L296R (ligand, JO-1 format; Positions count on the full Ad3 fiber; also called combination of D261N and L296R) MKVSALKEKVSALKEKVSALKEKVSALKEKVSALKEGSGGGSGGGSGGGSNSIALKNNTLWTGPKPEANCIIEYGKQNPDSKLTLILVKNGGIVNGYVTLMGASDYVNTLFKNKNVSINVELYFDATGHILPDSSSLKTDLELKYKQTADFSARGFMPSTTAYPFVLPNAGTHNENYIFGQCYYKASNGALFPLEVTVMLNKRLPDSRTSYVMTFLWSLNAGRAPETTQATLITSPFTFSYIREDD :: 20.1 % (JO-1 = 100%)

Continue with the next binder.
-- ask Which value of Inhibition of attachment in the presence of dimeric knob (JO-1 = 100%) has been reported for dimeric Ad3 fiber knob mutant F265L (ligand, JO-1 format) MKVSALKEKVSALKEKVSALKEKVSALKEKVSALKEGSGGGSGGGSGGGSNSIALKNNTLWTGPKPEANCIIEYGKQNPDSKLTLILVKNGGIVNGYVTLMGASDYVNTLFKNKNVSINVELYFDATGHILPDSSSLKTDLELKYKQTADFSARGFMPSTTAYPFVLPNAGTHNENYIFGQCYYKASDGALLPLEVTVMLNKRLPDSRTSYVMTFLWSLNAGLAPETTQATLITSPFTFSYIREDD in the records?
-- reply 55.6 % (JO-1 = 100%)
